MEASUREMENT_DESCRIPTION: Cyclic voltammetry of the redox-active amines
CONDITION_SUMMARY: Table 1; techniques of Example 1
VALUE_KIND: Ep^red vs Ag/AgCl (V)

Solved entries:
# SMILES_ENTRY, MEASUREMENT_UNIT, Ep^red vs Ag/AgCl
records = [
    ("Cc1ccc[n+](N)c1.[O-][Cl+3]([O-])([O-])[O-]", "V", "−0.47"),
    ("N[n+]1ccc(O)cc1", "V", "−0.56"),
    ("COc1cccc[n+]1N.O=[N+]([O-])[O-]", "V", "−0.73"),
    ("CNc1cc[n+](N)cc1.O=[N+]([O-])[O-]", "V", "−0.47"),
    ("Cc1cc(C)c[n+](N)c1.[O-][Cl+3]([O-])([O-])[O-]", "V", "−0.44"),
]

1 = COc1ccc[n+](N)c1.[O-][Cl+3]([O-])([O-])[O-]
2 = COc1cc[n+](N)cc1.[O-][Cl+3]([O-])([O-])[O-]
[in] Lower value for measured Ep^red vs Ag/AgCl? Options: 1 , 2 Indicate your choice by writing its label.
[out] 2

====

MEASUREMENT_DESCRIPTION: Cyclic voltammetry of the redox-active amines
CONDITION_SUMMARY: Table 1; gap between Ep^oxi and Ep^red
VALUE_KIND: Potential gap (V)

# count of solved cases: 5
# SMILES_ENTRY, MEASUREMENT_UNIT, Potential gap
measured = [
    ("NC(=O)c1cc[n+](N)cc1.O=[N+]([O-])[O-]", "V", 1.37),
    ("N#Cc1cc[n+](N)cc1.O=[N+]([O-])[O-]", "V", 1.43),
    ("CC(C)(C)c1cc[n+](N)cc1.[O-][Cl+3]([O-])([O-])[O-]", "V", 1.31),
    ("COc1ccc[n+](N)c1.[O-][Cl+3]([O-])([O-])[O-]", "V", 1.30),
    ("Nc1ccc[n+](N)c1", "V", 1.73),
]

A = Cc1cc(C)c[n+](N)c1.[O-][Cl+3]([O-])([O-])[O-]
B = CNc1cc[n+](N)cc1.O=[N+]([O-])[O-]
[in] Smaller Potential gap value? Options are A and B Kindly give the label for the entry you pick.
[out] B
(B: 1.34 V, A: 1.96 V)

====

MEASUREMENT_DESCRIPTION: Cyclic voltammetry of the redox-active amines
CONDITION_SUMMARY: Table 1; techniques of Example 1
VALUE_KIND: Ep^red vs Ag/AgCl (V)

# SMILES_ENTRY, MEASUREMENT_UNIT, Ep^red vs Ag/AgCl
rows = [
    ("Nc1cc[n+](N)cc1", "V", "−0.48"),
    ("CC(C)(C)c1cc[n+](N)cc1.[O-][Cl+3]([O-])([O-])[O-]", "V", "−0.48"),
    ("NC(=O)c1cc[n+](N)cc1.O=[N+]([O-])[O-]", "V", "−0.49"),
    ("COC(=O)c1cc[n+](N)cc1.F[B-](F)(F)F", "V", "−0.34"),
    ("Cc1cccc(C)[n+]1N.[O-][Cl+3]([O-])([O-])[O-]", "V", "−0.43"),
    ("N#Cc1cc[n+](N)cc1.O=[N+]([O-])[O-]", "V", "−0.55"),
]

P = CN(C)c1cc[n+](N)cc1
Q = Nc1ccc[n+](N)c1
[in] For the two items P and Q , which reports the higher Ep^red vs Ag/AgCl value? Please respond with the label that marks your chosen entry.
[out] P
(P: −0.43 V, Q: −0.70 V)
